- Study system: T1, Cynomolgus CD3εδ Fc heterodimer (Cy CD3ε Fc / CD3δ Fc-HIS) (cynomolgus, UniProt Q95LI8 22-100)
- T1 chain 1: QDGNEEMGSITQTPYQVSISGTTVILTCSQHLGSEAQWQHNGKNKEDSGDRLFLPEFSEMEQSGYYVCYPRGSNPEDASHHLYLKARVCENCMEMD
- T1 chain 2: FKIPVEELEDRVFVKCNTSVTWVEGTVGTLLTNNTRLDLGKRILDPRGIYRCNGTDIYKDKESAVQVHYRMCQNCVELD
- Assay name: BLI (Octet), IgG on AHC sensor, pH 6.0
Entries and their koff
Measured property: koff (s⁻¹)

binder="SAD10319_P02_A06 (ADI-57320) (antibody, V domains shown, IgG; also called Ab8) VH: QVQLVQSGAEVKKPGASVKVSCKASGYTFDAYAMHWVRQAPGQRLEWMGWIDAGTGATKYSQKFQGRVTITRDTSASTAYMELSSLRSEDTAVYYCARDHYGHYFYDVWGQGTLVTVSS VL: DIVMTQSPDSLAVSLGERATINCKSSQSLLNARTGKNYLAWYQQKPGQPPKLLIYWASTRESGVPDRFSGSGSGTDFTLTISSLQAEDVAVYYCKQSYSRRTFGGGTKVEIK" measured_property=koff unit_descriptor=s⁻¹ numeric_value=0.0327
binder="SAD10319_P04_G10 (ADI-57334) (antibody, V domains shown, IgG; also called Ab32) VH: QVQLVQSGAEVKKPGASVKVSCKASGYTFTDYYMHWVRQAPGQRLEWMGWINPATGATAYSQKFQGRVTITRDTSASTAYMELSSLRSEDTAVYYCARDAYGHHFYDVWGQGTLVTVSS VL: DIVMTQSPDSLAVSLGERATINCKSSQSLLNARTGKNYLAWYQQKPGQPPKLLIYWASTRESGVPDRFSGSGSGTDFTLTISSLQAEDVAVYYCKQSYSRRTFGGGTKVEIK" measured_property=koff unit_descriptor=s⁻¹ numeric_value=0.015
binder="SAD10319_P03_H08 (ADI-57328) (antibody, V domains shown, IgG; also called Ab23) VH: QVQLVQSGAEVKKPGASVKVSCKASGYTFKSYDMHWVRQAPGQRPEWMGWINAGTGNTVYSQKFQGRVTITRDTSASTAYMELSSLRSEDTAVYYCARDAYHRYFYDVWGQGTLVTVSS VL: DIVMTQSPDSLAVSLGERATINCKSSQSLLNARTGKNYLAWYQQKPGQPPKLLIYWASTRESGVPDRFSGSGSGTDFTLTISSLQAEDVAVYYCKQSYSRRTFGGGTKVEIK" measured_property=koff unit_descriptor=s⁻¹ numeric_value=0.00348
binder="SAD10319_P05_D05 (ADI-57410) (antibody, V domains shown, IgG; also called Ab138) VH: QVQLVQSGAEVKKPGASVKVSCKASGYTFADYAMHWVRQAPGHRLEWMGDIIAGTGATKYSQKFQGRVTITRDTSASTAYMELSSLRSEDTAVYYCARDHYGHYFYDVWGQGTLVTVSS VL: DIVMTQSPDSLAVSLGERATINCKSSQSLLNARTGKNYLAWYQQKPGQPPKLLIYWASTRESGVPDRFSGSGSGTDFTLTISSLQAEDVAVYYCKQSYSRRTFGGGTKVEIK" measured_property=koff unit_descriptor=s⁻¹ numeric_value=0.0158

Source listed as patent US20220380463A1.
